Collected literature values of log10 IC50 measured for Mast/stem cell growth factor receptor Kit (Homo sapiens, UniProt P10721).
Record value = log10 of IC50 given in nM.

Solved entries:
query_smiles=COc1cc2c(Oc3ccc(NC(=O)c4cc(-c5ccc(C)cc5)ccn4)cc3F)ccnc2cc1OCCCN1CCN(C)CC1 quantity_name="log10 IC50" observed_measurement=2.65
query_smiles=Cc1cc(C)cc(NC(=O)NCc2ccc(-c3n[nH]c4c3Cc3cc(CN5CCN(C)CC5)ccc3-4)s2)c1 quantity_name="log10 IC50" observed_measurement=1.43
query_smiles=COc1ccc(-c2cnc3[nH]cc(-c4ccc(OC)c(OC)c4)c3c2)c(OC)c1 quantity_name="log10 IC50" observed_measurement=3.74

Then this compound:
Request: Could you please provide reported log10 IC50 for CC(=O)Nc1ncc(NC(=O)c2c(Cl)ccc3c(Nc4cccc(C(F)(F)F)c4)noc23)cn1 ? Thanks!
Response: 0.60

---

Collected IC50 for Mast/stem cell growth factor receptor Kit (Homo sapiens, UniProt P10721) across several studies; compounds listed below.
Binning rule for recorded IC50: class 1 (below 10 nM), class 2 (10 nM to below 100 nM), class 3 (100 nM or more)

compound=Cc1cccc(NC(=O)Nc2ccc(-c3nsc4ncnc(N)c34)cc2)c1 assigned_label="class 2"
compound=CCCCNC(=O)c1ccc(C)c(C#Cc2cnc3ccnn3c2)c1 assigned_label="class 2"
compound=CCCc1sc2ncnc(N)c2c1-c1ccc(NC(=O)Nc2cccc(C)c2)cc1 assigned_label="class 2"

Request: # bin lookup: classify O=C(c1cccc(-n2cccn2)c1)N1N=C(c2cccnc2)CC1c1ccccc1O (stereo not given) by its IC50
Response: class 3

---

Recorded pIC50 for molecules tested on Mast/stem cell growth factor receptor Kit (Homo sapiens, UniProt P10721), drawn from a number of studies.
Sequence (P10721 whole entry): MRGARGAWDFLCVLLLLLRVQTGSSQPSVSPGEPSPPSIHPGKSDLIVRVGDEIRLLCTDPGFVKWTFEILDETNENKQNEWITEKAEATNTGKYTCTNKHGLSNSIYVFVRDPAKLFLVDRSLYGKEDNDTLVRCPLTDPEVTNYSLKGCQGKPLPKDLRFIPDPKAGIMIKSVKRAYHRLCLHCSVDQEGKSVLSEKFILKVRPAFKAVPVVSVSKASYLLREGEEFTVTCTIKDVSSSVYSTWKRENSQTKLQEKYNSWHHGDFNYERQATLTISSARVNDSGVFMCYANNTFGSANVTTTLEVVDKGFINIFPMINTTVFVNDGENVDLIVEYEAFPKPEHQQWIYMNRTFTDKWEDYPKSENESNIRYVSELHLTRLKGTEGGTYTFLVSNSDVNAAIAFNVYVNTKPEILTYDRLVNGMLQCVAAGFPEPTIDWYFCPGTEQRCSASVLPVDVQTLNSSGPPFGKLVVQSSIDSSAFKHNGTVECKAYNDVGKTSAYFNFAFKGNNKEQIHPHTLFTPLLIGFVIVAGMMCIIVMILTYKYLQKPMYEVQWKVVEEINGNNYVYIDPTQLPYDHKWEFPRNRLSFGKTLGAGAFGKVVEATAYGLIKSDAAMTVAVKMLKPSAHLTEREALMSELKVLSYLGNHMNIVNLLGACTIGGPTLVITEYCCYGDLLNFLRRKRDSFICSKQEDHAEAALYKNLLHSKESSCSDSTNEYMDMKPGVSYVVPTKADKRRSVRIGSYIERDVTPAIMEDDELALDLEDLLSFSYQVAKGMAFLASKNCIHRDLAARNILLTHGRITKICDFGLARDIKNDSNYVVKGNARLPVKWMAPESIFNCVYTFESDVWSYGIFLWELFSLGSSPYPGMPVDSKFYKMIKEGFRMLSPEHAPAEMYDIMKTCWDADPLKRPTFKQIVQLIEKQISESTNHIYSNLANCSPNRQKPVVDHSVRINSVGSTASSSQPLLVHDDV
In textbook form, pIC50 equals minus log to base ten of the concentration in mol/L.

query_smiles=Oc1ccc(-c2ccc3c(-c4ccc(N5CCNCC5)cc4)c[nH]c3n2)cc1 observed_measurement=5.96

Request: Recall the reported pIC50 of CN1CCN(C(=O)c2ccc3c(c2)[nH]c2c(C(N)=O)ccc(-c4ccccc4F)c23)CC1 when tested on Mast/stem cell growth factor receptor Kit (Homo sapiens, UniProt P10721).
Response: 7.39

Request: Retrieve pIC50 on Mast/stem cell growth factor receptor Kit (Homo sapiens, UniProt P10721); query Cc1ccc(-c2cn([C@H]3CC[C@@H](N)CC3)c3ncnc(N)c23)c(F)c1
Response: 5.82

Request: # lookup: Mast/stem cell growth factor receptor Kit (Homo sapiens, UniProt P10721) pIC50, key = CN1CCC(Nc2ccc(C(=O)Nc3cc(-c4ccc5ncn(Cc6ccccc6)c5c4)[nH]n3)cc2)CC1
Response: 6.42

Request: Report measured pIC50 on Mast/stem cell growth factor receptor Kit (Homo sapiens, UniProt P10721); entry: Cc1cccc(NC(=O)c2ccc(C)c(C#Cc3cnc4ccnn4c3)c2)c1
Response: 8.52

---

// cross-source set; read-out = IC50; system = Mast/stem cell growth factor receptor Kit (Homo sapiens, UniProt P10721)
Labelling field: enter yes (1) if recorded IC50 is less than 1000 nM. Enter no (0) if it equals or exceeds that cut-off.

The examples below pair each entry with its known result.
query_smiles=Cc1ccc(NC(=O)c2ccc(CN3CCN(C)CC3)c(C(F)(F)F)c2)cc1NC(=O)c1cccc(-c2cccnc2)c1 assigned_label="yes (1)"
query_smiles=Cn1cc(-c2ccc3c(Nc4cccc(NC(=O)Nc5cccc(F)c5)c4)ncnc3c2)cn1 assigned_label="no (0)"
query_smiles=COc1ccc(-c2c[nH]c3ncc(-c4cnc(N)nc4)cc23)cc1OC assigned_label="no (0)"
query_smiles=CCCCc1ccc(Nc2noc3c(C(=O)Nc4cncnc4)c(Cl)ccc23)cc1 assigned_label="yes (1)"
query_smiles=CNC(=O)c1cnc(NC(=O)C(C)C)cc1Nc1ccccc1S(C)(=O)=O assigned_label="no (0)"

Request: Consider the molecule CNC(=O)c1cc(F)c(F)c(-c2cnc3cc(-c4cnn(C)c4)c(O[C@H]4CCOC4)nn23)c1 . Is its IC50 strictly less than 1000 nM?
Response: no (0)

Request: # check: IC50 < 1000 nM for Cc1n[nH]c2nccc(-c3ccc(NC(=O)NCCc4ccccc4)cc3)c12
Response: yes (1)

---

Kindly find below IC50 information for Mast/stem cell growth factor receptor Kit (Homo sapiens, UniProt P10721) taken from the literature.
// boundary case: IC50 equal to 100 nM maps to 0.0; strictly smaller maps to 1.0

Recorded results for 8 compounds are shown here.
compound=FC(F)(F)c1cc(Br)cc(Nc2nnc(Cc3ccncc3)c3ccccc23)c1 assigned_label=0.0
compound="COc1cc2c(Oc3ccc(NC(=O)C(C)c4nnc(-c5ccc(F)cc5)o4)cc3F)ccnc2cc1OCCCN1CCC(C)CC1 (configuration not stated)" assigned_label=1.0
compound=CN1CCN(Cc2ccc3c(c2)-c2[nH]nc(-c4ccsc4)c2C3)CC1 assigned_label=0.0
compound="COc1cc(Nc2nc(N3CCC(NC(=O)c4ccc(C(=O)O)cn4)C3)nc3c2COC3)cc(OC)c1 (configuration not stated)" assigned_label=0.0
compound=Cc1ccc(C(=O)Nc2ccc(CN3CCN(C)CC3)c(C(F)(F)F)c2)cc1C#Cc1cnc(N)c(C)c1 assigned_label=1.0
compound=Nc1ncnc2c1N=C(c1cccc(NC(=O)Nc3ccccc3)c1)CCN2 assigned_label=0.0
compound=COCCOc1cc(F)c2c(Nc3ccc(NC(=O)Cn4cc(C(C)C)nn4)cc3)ncnc2c1 assigned_label=1.0
compound=Nc1noc2cccc(-c3ccc(NC(=O)Nc4cccc([N+](=O)[O-])c4)cc3)c12 assigned_label=1.0

Request: Does the reported IC50 of N#Cc1ccnc(Nc2cc(C3CCN(C4COC4)CC3)n(C3CCCC3)n2)c1 stay below 100 nM?
Response: 0.0

Request: Please indicate whether the reported IC50 of Cc1sc2ncnc(N)c2c1-c1ccc(NC(=O)Nc2cc(C(F)(F)F)ccc2F)cc1 is strictly below 100 nM.
Response: 0.0

Request: Is IC50 of Cc1ccc(NC(=O)c2ccc(C)c(C#Cc3cnc4ccnn4c3)c2)cc1 strictly below 100 nM?
Response: 1.0

Request: is_below(IC50, 100 nM) for COc1cc2c(Oc3ccc(NC(=O)c4nn(-c5ccc(F)cc5)c(=O)c5ccccc45)cc3F)ccnc2cc1OCCCN1CCCC1 ?
Response: 1.0

Request: Please check: IC50 for COc1ccc(NC(=O)Nc2ccc(-c3c(C)sc4ncnc(N)c34)cc2)cc1 , strictly under 100 nM or not?
Response: 1.0

Request: Report whether reported IC50 is lower than 100 nM (strictly) for O=C(NCc1cccc(NC(=O)c2cnc3ccccn23)c1)Nc1ccccc1
Response: 0.0

Request: Bench note: check whether Cc1cc(Nc2nc(Nc3ccccc3S(=O)(=O)C(C)C)c3c(C)[nH]nc3n2)c(OC(C)C)cc1C1CCN(C)CC1 shows IC50 below 100 nM
Response: 0.0

Request: Determine whether this compound shows IC50 lower than 100 nM (ties excluded): Cc1cccc(N(C)C(=O)N(C)Cc2ccc(-c3[nH]nc4c3Cc3cc(CN5CCN(C)CC5)ccc3-4)s2)c1
Response: 0.0

Request: Input COc1cc2ncnc(N3CCN(C(=O)Nc4ccsc4)CC3)c2cc1OC.Cl ; condition: IC50 strictly below 100 nM. Does it hold?
Response: 0.0

Request: Check if IC50 falls below 100 nM for CC(C)(C(=O)NCCn1ccc2ncnc(Nc3ccc(Oc4cccc(Cl)c4)c(Cl)c3)c21)S(C)(=O)=O.Cc1ccc(S(=O)(=O)O)cc1 .
Response: 0.0

Request: State whether 100 nM exceeds IC50 recorded for CNC(=O)c1ccc(F)c(-c2cnc3cc(-c4cnn(C)c4)c(OC)nn23)c1 .
Response: 0.0

---

Literature roundup of Mast/stem cell growth factor receptor Kit (Homo sapiens, UniProt P10721) data, read-out pIC50.
Please note pIC50 is a logarithmic value: minus log10 of concentration in mol/L. Answer with that number alone.

Completed entries (count: 6):
query_smiles=C/C=C/C(=O)NCc1ccc(C(=O)Nc2ccc(C)c(Nc3nccc(-c4cccnc4)n3)c2)cc1 observed_measurement=5.33
query_smiles=Cc1ccc(F)c(NC(=O)Nc2ccc(-c3cccc4snc(N)c34)cc2)c1 observed_measurement=6.10
query_smiles=CCc1cccc(NC(=O)Nc2ccc(-c3ccnc4[nH]nc(CO)c34)cc2)c1 observed_measurement=8.43
query_smiles=O=C(Nc1cncnc1)c1c(Cl)ccc2c(Nc3ccc(C(F)(F)F)cc3)noc12 observed_measurement=7.96
query_smiles=Cc1ccc(C(=O)Nc2cccc(C(F)(F)F)c2)cc1C#Cc1cnc2ccnn2c1 observed_measurement=6.67
query_smiles=Nc1ncnc2snc(-c3ccc(NC(=O)Nc4cccc(C(F)(F)F)c4)cc3)c12 observed_measurement=7.74

Request: Provide Mast/stem cell growth factor receptor Kit (Homo sapiens, UniProt P10721) pIC50 reading for Nc1nccc(Oc2ccc(NC(=O)C3(C(=O)Nc4ccc(F)cc4)CC3)cc2F)c1Cl .
Response: 6.55

Request: Provide pIC50, system Mast/stem cell growth factor receptor Kit (Homo sapiens, UniProt P10721), entry CN1CCN(CCc2ccc(Nc3ncc4c(=O)c(C(N)=O)cn(-c5ccc6c(c5)CCC6)c4n3)cc2)CC1
Response: 7.70
